Listed here: items and their measured T/C.
System: P388 leukemia ip, CD2F1 mice, survival T/C
Test: NCI In Vivo Anticancer Drug Screen. Data for tumor model P388 Leukemia (intraperitoneal) in CD2F1 (CDF1) mice
Conditions: endpoint: median survival time; dose: 100.0 mg/kg/injection; schedule: Q01DX001 (ip); vehicle: saline with Tween-80; higher = longer survival
Inconclusive results and toxic doses are left out.

Compound	Measured value
c1ccc(-c2ncc[nH]2)cc1	98 % of control

Please look at the following compound next.
# input Look at this compound and give its reported T/C. Cc1ccc(-n2c(O)c(N=Nc3ccccc3Cl)c(=O)n(-c3ccc(Br)cc3)c2=S)cc1
# output 98 % of control

###

Listed here: items and their measured T/C.
Tested on: P388 leukemia ip, CD2F1 mice, survival T/C
Experiment: NCI In Vivo Anticancer Drug Screen. Data for tumor model P388 Leukemia (intraperitoneal) in CD2F1 (CDF1) mice
Settings: endpoint: median survival time; dose: 240.0 mg/kg/injection; schedule: Q01DX005 (ip); vehicle: Klucel (hydroxypropylcellulose) (HPC); higher = longer survival
Toxic doses and inconclusive results are not listed. Peptide text beside a SMILES is read from it.

Examples from the recorded data:
Compound	T/C
ONC(=Nc1cccc2ccccc12)C(=Nc1cccc2ccccc12)NO	103 % of control
Cc1ccc(N(CN2C(=O)CCC2=O)CS(=O)(=O)c2ccc(Cl)cc2)cc1	90 % of control

# input Look at this compound and give its reported T/C. CC(=O)OC1C=CCC2C(=O)c3cccc(O)c3C(=O)C12 (stereo not drawn)
# output 97 % of control

# input Look at this compound and give its reported T/C. CCOC(=O)c1ccc(NC(=O)Nc2cccc3c(O)cccc23)cc1
# output 88 % of control

# input Look at this compound and give its reported T/C. CCCCc1c(C)[nH]n(C(N)=NCCSCc2nc[nH]c2C)c1=O
# output 100 % of control

# input Look at this compound and give its reported T/C. CCN(CC)P(CCCCP(N(CC)CC)N(CC)CC)N(CC)CC
# output 104 % of control

# input Look at this compound and give its reported T/C. CCC(C)C(N)C(=O)NC(Cc1ccc(O)cc1)C(=O)O (stereo not drawn) (H-Ile-Tyr-OH; configuration not given here)
# output 99 % of control

# input Look at this compound and give its reported T/C. CCOc1c(N=Nc2ccc(C)cc2)c(C)nn1C(=S)S
# output 97 % of control

# input Look at this compound and give its reported T/C. Cc1cc(N(CCO)CCO)c(OCc2ccccc2)c(N(CCO)CCO)c1
# output 98 % of control

# input Look at this compound and give its reported T/C. CN1c2ccccc2Sc2c1n[nH]c2-c1ccccc1
# output 119 % of control

# input Look at this compound and give its reported T/C. CN1C(=O)C(Cc2cnc[nH]2)NC1=S (stereo not drawn)
# output 93 % of control

# input Look at this compound and give its reported T/C. COc1cc(C(Nc2ccccn2)c2cc3c(cc2O)OCO3)cc(OC)c1O (stereo not drawn)
# output 94 % of control

# input Look at this compound and give its reported T/C. COc1cccc2c1S(=O)(=O)C(c1ccccc1)=CC2=O
# output 120 % of control

# input Look at this compound and give its reported T/C. COc1ccc2c(=O)cc(-c3ccccc3)sc2c1
# output 98 % of control

# input Look at this compound and give its reported T/C. O=C1C2(CCCC13N=NCC3c1ccccc1)N=NCC2c1ccccc1 (stereo not drawn)
# output 93 % of control

# input Look at this compound and give its reported T/C. CC(=O)Cc1nc2ccccc2[nH]c1=O
# output 100 % of control

# input Look at this compound and give its reported T/C. O=C1OC(c2cccnc2)OC(c2ccccc2)=C1C(=O)c1ccccc1 (stereo not drawn)
# output 97 % of control

# input Look at this compound and give its reported T/C. O=C1S/C(=C2\C(=O)N(CN3CCCCC3)c3ccccc32)C(=O)N1CN1CCCCC1
# output 92 % of control
